system.tested: Rho-associated protein kinase 2 (Homo sapiens)
method.notes: Inhibition of ROCK2 (unknown origin) by HTRF assay
pIC50: −log10 of the molar value.
Assign Fulfilled to entries whose pIC50 meets or exceeds 8; assign Not fulfilled to the rest.

Examples with answers:
Cc1cc(=O)n(-c2cccc(CN[C@H]3CCC[C@H](Nc4ccc5[nH]ncc5c4)C3)c2)cc1F: Fulfilled
Cc1cc(=O)n(-c2cccc(CN[C@H]3CCC[C@@H](Nc4ccc5[nH]ncc5c4)C3)c2)cc1F: Not fulfilled
Nc1ccn(-c2ccc(CNC3CCCC(Nc4ccc5[nH]ncc5c4)C3)cc2)c(=O)n1 (stereo not given): Fulfilled
Cc1ccn(-c2cccc(CN[C@H]3CCC[C@H](Nc4ccc5[nH]ncc5c4)C3)c2)c(=O)c1: Not fulfilled

Turning to the following molecule.
Query block: Check this molecule for pIC50 at or above 8: Cc1cc(=O)n(-c2cccc(CN[C@H]3CCC[C@@H](Nc4ccc5[nH]ncc5c4)C3)c2)cc1N
Result block: Not fulfilled

---

method.notes: AUC (0 to infinity) in Balb/c mouse at 10 mg/kg, iv measured for 0.08 to 24 hrs by LC-MS/MS analysis
Type: ADME, organism-based
Parameters: dose 10 mg/kg, time upper 24 hrs, time lower 0.08 hrs, route iv
run.conditions: in vivo
observation.type: AUC(0-inf) (ng·h/mL)
Entry rule: numbers only, all in ng·h/mL.

Query block: Can you look up the measured AUC(0-inf) of Cc1cc(=O)n(-c2cccc(CN[C@H]3CCC[C@H](Nc4ccc5[nH]ncc5c4)C3)c2)cc1F for me?
Result block: 1060

---

method.notes: AUC (0 to t) in Balb/c mouse at 10 mg/kg, iv measured for 0.08 to 24 hrs by LC-MS/MS analysis
Format: ADME, organism-based
Design: time upper 24 hrs, time lower 0.08 hrs, dose 10 mg/kg, route iv
run.conditions: in vivo
observation.type: AUC(0-t)
Show the value, then the unit it is measured in.

Query block: Can you look up the measured AUC(0-t) of Cc1cc(=O)n(-c2cccc(CN[C@H]3CCC[C@H](Nc4ccc5[nH]ncc5c4)C3)c2)cc1F for me?
Result block: 1040 ng·h/mL

---

method.notes: Chemical stability of compound in PBS at pH 7.4 assessed as compound remaining measured after 10 days
Type: physicochemical
run.conditions: time 10 day, read-out: Stability
observation.type: remaining at 240 h (%)
Entry rule: numbers only, all in %.

Query block: Can you look up the measured remaining at 240 h of Cc1cc(=O)n(-c2cccc(CN[C@H]3CCC[C@H](Nc4ccc5[nH]ncc5c4)C3)c2)cc1F for me?
Result block: 100

---

system.tested: Rho-associated protein kinase 2 (Homo sapiens, UniProt O75116)
Sequence (O75116 whole entry): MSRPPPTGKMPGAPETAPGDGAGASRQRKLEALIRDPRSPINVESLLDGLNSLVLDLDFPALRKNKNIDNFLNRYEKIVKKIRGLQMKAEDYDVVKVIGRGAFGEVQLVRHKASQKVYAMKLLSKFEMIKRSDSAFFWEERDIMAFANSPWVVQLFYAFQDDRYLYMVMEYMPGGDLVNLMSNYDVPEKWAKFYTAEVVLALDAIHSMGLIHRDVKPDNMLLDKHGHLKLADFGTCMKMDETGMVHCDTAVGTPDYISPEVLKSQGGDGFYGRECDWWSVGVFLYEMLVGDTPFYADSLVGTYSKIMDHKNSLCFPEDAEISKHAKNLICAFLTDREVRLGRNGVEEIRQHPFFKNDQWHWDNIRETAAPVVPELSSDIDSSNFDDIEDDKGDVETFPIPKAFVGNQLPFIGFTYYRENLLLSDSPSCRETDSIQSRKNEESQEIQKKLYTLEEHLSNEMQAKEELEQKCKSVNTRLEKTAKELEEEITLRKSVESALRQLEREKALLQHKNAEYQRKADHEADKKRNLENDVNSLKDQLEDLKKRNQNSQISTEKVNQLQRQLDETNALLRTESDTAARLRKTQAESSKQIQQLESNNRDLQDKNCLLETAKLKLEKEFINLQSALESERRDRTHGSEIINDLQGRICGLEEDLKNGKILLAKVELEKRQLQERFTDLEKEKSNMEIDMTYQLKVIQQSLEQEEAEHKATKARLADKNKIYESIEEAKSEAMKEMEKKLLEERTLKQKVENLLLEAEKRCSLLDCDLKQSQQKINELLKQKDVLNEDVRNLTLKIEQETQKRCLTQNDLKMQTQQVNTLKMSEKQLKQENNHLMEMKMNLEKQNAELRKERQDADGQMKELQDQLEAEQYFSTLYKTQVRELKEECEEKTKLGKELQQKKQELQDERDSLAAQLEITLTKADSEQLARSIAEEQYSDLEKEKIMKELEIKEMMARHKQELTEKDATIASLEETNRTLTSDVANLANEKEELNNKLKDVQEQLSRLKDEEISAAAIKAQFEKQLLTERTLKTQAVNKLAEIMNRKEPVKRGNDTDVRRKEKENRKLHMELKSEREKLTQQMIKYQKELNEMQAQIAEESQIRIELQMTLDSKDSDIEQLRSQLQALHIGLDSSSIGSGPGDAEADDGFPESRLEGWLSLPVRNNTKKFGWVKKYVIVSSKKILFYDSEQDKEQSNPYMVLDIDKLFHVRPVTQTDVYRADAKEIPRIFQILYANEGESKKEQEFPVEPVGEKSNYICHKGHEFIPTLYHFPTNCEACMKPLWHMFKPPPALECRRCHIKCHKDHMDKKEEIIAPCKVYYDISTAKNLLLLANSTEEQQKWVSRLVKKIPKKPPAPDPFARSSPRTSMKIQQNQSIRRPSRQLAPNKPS
method.notes: Inhibition of ROCK2 (unknown origin)
observation.type: IC50 (nM)
Entry rule: numbers only, all in nM.

Query block: Can you look up the measured IC50 of COc1cc(-c2cn[nH]c2)cc2c(=O)[nH]c(C3COc4ccc(OCCN(C)C)cc4C3)nc12 (stereo unspecified) for me?
Result block: 12

---

method.notes: AUC (0 to t) in Balb/c mouse at 40 mg/kg, po measured for 0.08 to 24 hrs by LC-MS/MS analysis
Format: ADME, organism-based
Set-up: time 0.08-24 hrs, dose 40 mg/kg, route po
run.conditions: in vivo
observation.type: AUC(0-t) (ng·h/mL)
Entry rule: numbers only, all in ng·h/mL.

Query block: Can you look up the measured AUC(0-t) of Cc1cc(=O)n(-c2cccc(CN[C@H]3CCC[C@H](Nc4ccc5[nH]ncc5c4)C3)c2)cc1F for me?
Result block: 300

---

method.notes: Selectivity ratio of IC50 for ROCK1 (unknown origin) to IC50 for ROCK2 (unknown origin)
observation.type: Ratio IC50
Lab note: write the figure by itself, no unit.

Cc1ccn(-c2cccc(CN[C@H]3CCC[C@@H](Nc4ccc5[nH]ncc5c4)C3)c2)c(=O)c1: 68
O=c1cc(F)ccn1-c1cccc(CN[C@H]2CCC[C@@H](Nc3ccc4[nH]ncc4c3)C2)c1: 3
Cc1cccn(-c2cccc(CN[C@H]3CCC[C@H](Nc4ccc5[nH]ncc5c4)C3)c2)c1=O: 15
O=c1cc(F)ccn1-c1cccc(CN[C@H]2CCC[C@H](Nc3ccc4[nH]ncc4c3)C2)c1: 6

Query block: Can you look up the measured Ratio IC50 of NC(=O)c1ccn(-c2cccc(CN[C@H]3CCC[C@H](Nc4ccc5[nH]ncc5c4)C3)c2)c(=O)c1 for me?
Result block: 2

Query block: Would you kindly repeat that for CC(C)(C)c1ccn(-c2cccc(CN[C@H]3CCC[C@H](Nc4ccc5[nH]ncc5c4)C3)c2)c(=O)c1 ?
Result block: 162

Query block: Would you kindly repeat that for O=c1cc(-c2ccccc2)ccn1-c1cccc(CN[C@H]2CCC[C@H](Nc3ccc4[nH]ncc4c3)C2)c1 ?
Result block: 32

Query block: Would you kindly repeat that for O=c1cc(C(F)(F)F)ccn1-c1cccc(CN[C@H]2CCC[C@@H](Nc3ccc4[nH]ncc4c3)C2)c1 ?
Result block: 5

---

method.notes: Half life in Balb/c mouse at 10 mg/kg, iv measured for 0.08 to 24 hrs by LC-MS/MS analysis
Assay type: ADME, organism-based
run.conditions: in vivo, time 0.08-24 hrs
observation.type: half-life
Show the value, then the unit it is measured in.

Query block: Can you look up the measured half-life of Cc1cc(=O)n(-c2cccc(CN[C@H]3CCC[C@H](Nc4ccc5[nH]ncc5c4)C3)c2)cc1F for me?
Result block: 1.99 h

---

method.notes: Lipophilicity, log D of the compound at pH 7.4
Type: physicochemical
run.conditions: buffer
observation.type: logD
Lab note: write the figure by itself, no unit.

Query block: Can you look up the measured logD of Cc1cc(=O)n(-c2cccc(CN[C@H]3CCC[C@H](Nc4ccc5[nH]ncc5c4)C3)c2)cc1F for me?
Result block: 0.84

---

system.tested: Rho-associated protein kinase 1 (Homo sapiens)
Sequence (Q13464 whole entry): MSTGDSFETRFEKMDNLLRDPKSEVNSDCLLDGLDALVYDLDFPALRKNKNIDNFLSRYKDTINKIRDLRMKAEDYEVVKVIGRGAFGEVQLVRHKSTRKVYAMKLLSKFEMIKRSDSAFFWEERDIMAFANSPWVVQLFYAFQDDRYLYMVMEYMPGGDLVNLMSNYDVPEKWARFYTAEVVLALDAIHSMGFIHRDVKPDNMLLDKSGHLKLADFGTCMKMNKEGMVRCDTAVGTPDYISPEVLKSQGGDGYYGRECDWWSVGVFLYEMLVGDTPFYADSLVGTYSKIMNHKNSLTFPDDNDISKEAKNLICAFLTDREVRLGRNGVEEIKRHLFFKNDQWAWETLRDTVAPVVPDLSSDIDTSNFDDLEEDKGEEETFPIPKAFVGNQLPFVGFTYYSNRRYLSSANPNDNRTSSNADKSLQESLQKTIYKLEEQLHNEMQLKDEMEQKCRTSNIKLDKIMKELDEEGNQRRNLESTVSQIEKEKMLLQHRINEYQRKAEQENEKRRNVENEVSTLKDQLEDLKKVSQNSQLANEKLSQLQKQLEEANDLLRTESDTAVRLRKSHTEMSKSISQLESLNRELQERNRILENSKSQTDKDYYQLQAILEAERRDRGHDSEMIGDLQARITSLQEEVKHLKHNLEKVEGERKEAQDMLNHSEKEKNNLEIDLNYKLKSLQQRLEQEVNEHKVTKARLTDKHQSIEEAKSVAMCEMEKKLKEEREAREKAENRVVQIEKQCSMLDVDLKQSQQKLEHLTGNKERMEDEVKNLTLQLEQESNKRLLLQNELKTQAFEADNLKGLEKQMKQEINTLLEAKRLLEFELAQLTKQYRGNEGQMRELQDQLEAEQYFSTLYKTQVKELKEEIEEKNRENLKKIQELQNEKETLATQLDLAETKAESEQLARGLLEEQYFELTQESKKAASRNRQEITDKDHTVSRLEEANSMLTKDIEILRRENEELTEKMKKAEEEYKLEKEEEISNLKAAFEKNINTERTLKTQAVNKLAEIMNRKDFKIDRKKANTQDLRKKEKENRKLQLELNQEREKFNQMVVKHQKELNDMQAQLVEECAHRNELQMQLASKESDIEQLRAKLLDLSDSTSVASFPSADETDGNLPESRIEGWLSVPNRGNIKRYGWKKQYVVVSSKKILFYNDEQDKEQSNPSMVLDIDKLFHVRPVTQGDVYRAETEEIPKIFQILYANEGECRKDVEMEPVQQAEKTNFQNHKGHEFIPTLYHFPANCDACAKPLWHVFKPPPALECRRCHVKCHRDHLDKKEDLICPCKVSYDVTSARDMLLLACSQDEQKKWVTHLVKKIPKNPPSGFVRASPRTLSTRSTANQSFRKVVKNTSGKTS
method.notes: Inhibition of ROCK1 (unknown origin)
observation.type: IC50 (nM)
Entry rule: numbers only, all in nM.

Query block: Can you look up the measured IC50 of COc1cc(-c2cn[nH]c2)cc2c(=O)[nH]c(C3COc4ccc(OCCN(C)C)cc4C3)nc12 (stereo unspecified) for me?
Result block: 150

---

method.notes: Oral bioavailability in Balb/c mouse at 40 mg/kg measured for 0.08 to 24 hrs by LC-MS/MS analysis
Assay type: ADME, organism-based
run.conditions: in vivo, time 0.08-24 hrs
observation.type: bioavailability (%)
Entry rule: numbers only, all in %.

Query block: Can you look up the measured bioavailability of Cc1cc(=O)n(-c2cccc(CN[C@H]3CCC[C@H](Nc4ccc5[nH]ncc5c4)C3)c2)cc1F for me?
Result block: 7.14

---

method.notes: Selectivity ratio of IC50 for ROCK1 (unknown origin) to IC50 for ROCK2 (unknown origin)
observation.type: Ratio IC50
Lab note: write the figure by itself, no unit.

Some compounds with recorded Ratio IC50:
Cc1cccn(-c2cccc(CN[C@H]3CCC[C@@H](Nc4ccc5[nH]ncc5c4)C3)c2)c1=O: 5
CC(C)(C)c1ccn(-c2cccc(CN[C@H]3CCC[C@@H](Nc4ccc5[nH]ncc5c4)C3)c2)c(=O)c1: 216
O=c1cc(-c2ccccc2)ccn1-c1cccc(CN[C@H]2CCC[C@@H](Nc3ccc4[nH]ncc4c3)C2)c1: 59
CCc1ccn(-c2cccc(CN[C@H]3CCC[C@@H](Nc4ccc5[nH]ncc5c4)C3)c2)c(=O)c1C: 52
NC(=O)c1ccn(-c2cccc(CN[C@H]3CCC[C@@H](Nc4ccc5[nH]ncc5c4)C3)c2)c(=O)c1: 4
Cc1cc(=O)n(-c2cccc(CN[C@H]3CCC[C@H](Nc4ccc5[nH]ncc5c4)C3)c2)cc1F: 19
O=c1cc(C(F)(F)F)ccn1-c1cccc(CN[C@H]2CCC[C@H](Nc3ccc4[nH]ncc4c3)C2)c1: 2

Query block: Can you look up the measured Ratio IC50 of Cc1cc(=O)n(-c2cccc(CN[C@H]3CCC[C@@H](Nc4ccc5[nH]ncc5c4)C3)c2)cc1F for me?
Result block: 8

---

method.notes: Tmax in Balb/c mouse at 40 mg/kg, po measured for 0.08 to 24 hrs by LC-MS/MS analysis
Type: ADME, organism-based
run.conditions: in vivo, time 0.08-24 hrs
observation.type: Tmax (min)
Entry rule: numbers only, all in min.

Query block: Can you look up the measured Tmax of Cc1cc(=O)n(-c2cccc(CN[C@H]3CCC[C@H](Nc4ccc5[nH]ncc5c4)C3)c2)cc1F for me?
Result block: 15

---

method.notes: AUC (0 to infinity) in Balb/c mouse at 40 mg/kg, po measured for 0.08 to 24 hrs by LC-MS/MS analysis
Format: ADME, organism-based
Set-up: time 0.08-24 hrs, dose 40 mg/kg, route po
run.conditions: in vivo
observation.type: AUC(0-inf) (ng·h/mL)
Entry rule: numbers only, all in ng·h/mL.

Query block: Can you look up the measured AUC(0-inf) of Cc1cc(=O)n(-c2cccc(CN[C@H]3CCC[C@H](Nc4ccc5[nH]ncc5c4)C3)c2)cc1F for me?
Result block: 302
